Reference for the values: patent US8981111B2

procedure_text: log P (HPLC/MS data of the preparation examples)
conditions_used: LC-MS, method [b]: pH 2.7 with 0.1% formic acid in water and acetonitrile, linear gradient 10% to 95% acetonitrile
measurement_kind: log p

entry_smiles	observed_value
Cn1ncnc1C(=NOCc1cccc(NC(=O)CCc2cc(Cl)cc(Cl)c2)n1)c1ccccc1	4.29^[b]
Cn1ncnc1C(=NOCc1cccc(NC(=O)C(C)(C)C)n1)c1ccccc1	2.98^[b]
CC(C)CC(=O)Nc1cccc(CON=C(c2cccs2)c2ncnn2C)n1	2.78^[b]

Q: # log p lookup, item Cc1ccccc1C(=NOCc1cccc(NC(=O)C2CC2)n1)c1ncnn1C
Result: 2.48^[b]

Q: Fill blank: measured log p of the molecule Cn1ncnc1C(=NOCc1cccc(NC(=O)CCc2ccccc2Cl)n1)c1ccccc1 is ____.
Result: 3.72^[b]

Q: Look up log p: CCCCCCC(=O)Nc1ccnc(CON=C(c2ccccc2)c2nccn2C)n1
Result: 2.39^[b]
